pIC50: −log10 of the molar value.
Below are pIC50 values measured for NAD-dependent protein deacetylase sirtuin-1 (Homo sapiens, UniProt Q96EB6).
Readout name: pIC50

# Compound, Readout name, Value relation sign, Data value
data = [
    ("NC(=O)C1CCc2c1[nH]c1ccccc21 (stereo not drawn)", "pIC50", "=", 5.57),
    ("O=C(O)C1CCCc2c1[nH]c1ccc(Cl)cc21 (stereo not drawn)", "pIC50", "<", 4.00),
    ("Cc1ccc2[nH]c3c(c2c1)CCCC3C(N)=O (stereo not drawn)", "pIC50", "=", 6.69),
    ("NC(=O)C1NCCc2c1[nH]c1ccc(Cl)cc21 (stereo not drawn)", "pIC50", "=", 4.74),
    ("NC(=O)C1CCCc2c1[nH]c1ccc(O)cc21 (stereo not drawn)", "pIC50", "=", 4.82),
    ("CC(=O)N1CCc2c([nH]c3ccc(Cl)cc23)C1C(N)=O (stereo not drawn)", "pIC50", "=", 4.10),
    ("NC(=O)C1CCc2c([nH]c3ccc(Br)cc23)C1 (stereo not drawn)", "pIC50", "=", 5.61),
    ("O=C(NO)C1CCCc2c1[nH]c1ccc(Cl)cc21 (stereo not drawn)", "pIC50", "=", 4.11),
    ("CCNC(=O)C1CCCc2c1[nH]c1ccc(Cl)cc21 (stereo not drawn)", "pIC50", "<", 4.00),
    ("Cc1ccc2[nH]c3c(c2c1)CCCC3(C)C(N)=O (stereo not drawn)", "pIC50", "=", 4.89),
    ("CCOC(=O)C1CCCc2c1[nH]c1ccc(Cl)cc21 (stereo not drawn)", "pIC50", "<", 4.00),
    ("NC(=O)C1CCc2c([nH]c3ccc(Cl)cc23)C1 (stereo not drawn)", "pIC50", "=", 4.46),
    ("NC(=O)C1CCc2c1[nH]c1ccc(Cl)cc21 (stereo not drawn)", "pIC50", "=", 6.39),
    ("NC(=O)CNC(=O)C1CCCc2c1[nH]c1ccc(Cl)cc21 (stereo not drawn)", "pIC50", "<", 4.00),
    ("CCN(CC)C(=O)C1CCCc2c1[nH]c1ccc(Cl)cc21 (stereo not drawn)", "pIC50", "<", 4.00),
    ("NC(=O)C1NCCc2c1[nH]c1ccc(Br)cc21 (stereo not drawn)", "pIC50", "<", 4.00),
    ("Cc1ccc2c(c1)c1c(n2C)C(C(N)=O)CCC1 (stereo not drawn)", "pIC50", "<", 4.00),
    ("Cc1ccc2[nH]c3c(c2c1)CCCC3CN (stereo not drawn)", "pIC50", "<", 4.00),
]

###

Molecular target: CYP3A4 (Homo sapiens, UniProt P08684)
Sequence (P08684 whole entry): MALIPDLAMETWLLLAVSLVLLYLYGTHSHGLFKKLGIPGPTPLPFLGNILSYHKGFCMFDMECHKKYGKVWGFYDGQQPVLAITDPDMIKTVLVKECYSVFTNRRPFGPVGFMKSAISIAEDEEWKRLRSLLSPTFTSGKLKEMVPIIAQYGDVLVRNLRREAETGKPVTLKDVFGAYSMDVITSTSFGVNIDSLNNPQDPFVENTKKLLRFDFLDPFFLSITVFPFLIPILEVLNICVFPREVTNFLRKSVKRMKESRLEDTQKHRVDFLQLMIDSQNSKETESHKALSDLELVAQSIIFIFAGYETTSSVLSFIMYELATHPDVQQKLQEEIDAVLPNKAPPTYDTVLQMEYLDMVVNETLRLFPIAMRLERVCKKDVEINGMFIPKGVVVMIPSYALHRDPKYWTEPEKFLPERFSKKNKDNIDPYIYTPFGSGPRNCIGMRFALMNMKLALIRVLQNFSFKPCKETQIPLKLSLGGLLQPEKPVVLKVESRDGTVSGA
Assay: Percent inhibitory activity against human CYP3A4 at 1uM
Type: ADME
Catalogue of compounds with associated inhibition at 1 µM

# Compound, inhibition at 1 µM
rows = [
    ("NC(=O)C1CCCCc2c1[nH]c1ccc(Cl)cc21 (centres undefined)", "-12%"),
    ("NC(=O)C1CCCc2c1[nH]c1ccccc21 (centres undefined)", "-22%"),
    ("NC(=O)C1CCCc2c1[nH]c1ccc(Cl)cc21 (centres undefined)", "-26%"),
    ("Cc1ccc2[nH]c3c(c2c1)CCCC3C(N)=O (centres undefined)", "-16%"),
]

###

Biological target: CYP1A2 (Homo sapiens, UniProt P05177)
Sequence (P05177 whole entry): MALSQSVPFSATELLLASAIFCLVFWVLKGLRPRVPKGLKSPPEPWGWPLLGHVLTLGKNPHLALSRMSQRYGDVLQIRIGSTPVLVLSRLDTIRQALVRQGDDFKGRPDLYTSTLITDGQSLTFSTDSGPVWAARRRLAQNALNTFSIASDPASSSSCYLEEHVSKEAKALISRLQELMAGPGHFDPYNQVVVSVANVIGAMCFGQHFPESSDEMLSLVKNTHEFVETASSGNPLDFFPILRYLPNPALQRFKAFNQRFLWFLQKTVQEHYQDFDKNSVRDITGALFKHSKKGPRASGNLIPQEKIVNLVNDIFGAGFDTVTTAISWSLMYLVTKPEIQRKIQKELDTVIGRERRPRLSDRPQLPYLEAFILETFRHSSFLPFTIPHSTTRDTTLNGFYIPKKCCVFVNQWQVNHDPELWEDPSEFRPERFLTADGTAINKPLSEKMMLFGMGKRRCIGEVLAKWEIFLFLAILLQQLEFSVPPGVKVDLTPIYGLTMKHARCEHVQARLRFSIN
Test: Percent inhibitory activity against human CYP1A2 at 1uM
Type: ADME
inhibition at 1 µM for assorted molecules

# Molecule, Measurement target, inhibition at 1 µM / %
records = [
    ("NC(=O)C1CCCc2c1[nH]c1ccccc21 (centres undefined)", "CYP1A2 (Homo sapiens, UniProt P05177)", 4),
    ("NC(=O)C1CCCc2c1[nH]c1ccc(Cl)cc21 (centres undefined)", "CYP1A2 (Homo sapiens, UniProt P05177)", 11),
    ("NC(=O)C1CCCCc2c1[nH]c1ccc(Cl)cc21 (centres undefined)", "CYP1A2 (Homo sapiens, UniProt P05177)", 23),
    ("Cc1ccc2[nH]c3c(c2c1)CCCC3C(N)=O (centres undefined)", "CYP1A2 (Homo sapiens, UniProt P05177)", 7),
]

###

Molecular target: hERG (KCNH2) potassium channel (Homo sapiens, UniProt Q12809)
Sequence (Q12809 whole entry): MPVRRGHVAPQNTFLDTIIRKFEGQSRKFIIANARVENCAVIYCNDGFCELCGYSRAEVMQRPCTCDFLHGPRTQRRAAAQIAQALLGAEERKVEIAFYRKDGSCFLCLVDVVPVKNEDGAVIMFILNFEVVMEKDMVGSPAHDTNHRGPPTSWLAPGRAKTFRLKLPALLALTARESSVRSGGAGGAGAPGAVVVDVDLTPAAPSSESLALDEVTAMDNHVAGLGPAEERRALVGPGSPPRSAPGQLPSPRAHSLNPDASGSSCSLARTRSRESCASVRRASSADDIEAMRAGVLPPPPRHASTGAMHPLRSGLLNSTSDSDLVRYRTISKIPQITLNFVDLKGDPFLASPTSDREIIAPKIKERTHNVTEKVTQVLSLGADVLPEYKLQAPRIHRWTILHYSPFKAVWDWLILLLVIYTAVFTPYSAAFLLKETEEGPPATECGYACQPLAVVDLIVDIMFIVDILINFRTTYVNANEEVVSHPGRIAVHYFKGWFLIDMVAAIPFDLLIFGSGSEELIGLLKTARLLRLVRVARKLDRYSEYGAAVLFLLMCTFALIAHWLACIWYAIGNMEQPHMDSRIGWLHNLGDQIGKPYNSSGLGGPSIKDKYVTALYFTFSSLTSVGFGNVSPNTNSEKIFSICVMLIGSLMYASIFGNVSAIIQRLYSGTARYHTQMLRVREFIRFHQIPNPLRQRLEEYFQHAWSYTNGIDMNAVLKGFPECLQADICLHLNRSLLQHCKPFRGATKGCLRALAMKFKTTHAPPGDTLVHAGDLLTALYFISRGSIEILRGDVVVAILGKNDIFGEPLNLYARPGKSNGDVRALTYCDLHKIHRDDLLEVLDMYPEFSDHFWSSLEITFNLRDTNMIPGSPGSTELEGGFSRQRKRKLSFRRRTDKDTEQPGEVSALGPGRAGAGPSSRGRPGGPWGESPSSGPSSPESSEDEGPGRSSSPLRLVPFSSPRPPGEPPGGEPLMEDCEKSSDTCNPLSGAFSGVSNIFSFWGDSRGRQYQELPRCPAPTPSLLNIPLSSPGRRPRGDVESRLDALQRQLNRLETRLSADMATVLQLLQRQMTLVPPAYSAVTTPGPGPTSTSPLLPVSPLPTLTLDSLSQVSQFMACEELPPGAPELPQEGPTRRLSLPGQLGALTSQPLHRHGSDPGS
Assay: Percentage inhibitory activity against hERG potassium channel transfected in CHO cells at 10uM
Conditions: CHO cells transfected with hERG
Listed here: items and their measured inhibition at 10 µM.
Readout name: inhibition at 10 µM (%)

# Molecule, Unit abbrev, Data value
measured = [
    ("NC(=O)C1CCCc2c1[nH]c1ccccc21 (stereo not drawn)", "%", 0),
    ("Cc1ccc2[nH]c3c(c2c1)CCCC3C(N)=O (stereo not drawn)", "%", 0),
    ("NC(=O)C1CCCc2c1[nH]c1ccc(Cl)cc21 (stereo not drawn)", "%", 0),
]

###

Target sequence: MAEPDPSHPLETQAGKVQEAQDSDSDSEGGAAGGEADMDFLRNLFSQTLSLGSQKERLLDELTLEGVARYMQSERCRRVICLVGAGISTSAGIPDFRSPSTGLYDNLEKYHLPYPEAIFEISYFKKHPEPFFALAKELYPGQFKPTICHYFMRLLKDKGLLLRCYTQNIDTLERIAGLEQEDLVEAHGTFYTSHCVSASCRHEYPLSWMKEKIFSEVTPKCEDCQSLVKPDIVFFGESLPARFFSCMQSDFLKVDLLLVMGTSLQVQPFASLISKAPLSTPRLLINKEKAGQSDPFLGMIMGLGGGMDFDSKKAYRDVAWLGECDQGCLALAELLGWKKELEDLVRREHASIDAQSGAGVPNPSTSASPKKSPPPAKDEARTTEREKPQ
pIC50: −log10 of the molar value.
Readout name: pIC50

# Compound, Readout name, Data value
rows = [
    ("Cc1ccc2[nH]c3c(c2c1)CCCC3C(N)=O (configuration not stated)", "pIC50", 4.94),
    ("NC(=O)C1CCCc2c1[nH]c1ccccc21 (configuration not stated)", "pIC50", 4.61),
]

###

Molecular target: CYP2D6 (Homo sapiens, UniProt P10635)
Sequence (P10635 whole entry): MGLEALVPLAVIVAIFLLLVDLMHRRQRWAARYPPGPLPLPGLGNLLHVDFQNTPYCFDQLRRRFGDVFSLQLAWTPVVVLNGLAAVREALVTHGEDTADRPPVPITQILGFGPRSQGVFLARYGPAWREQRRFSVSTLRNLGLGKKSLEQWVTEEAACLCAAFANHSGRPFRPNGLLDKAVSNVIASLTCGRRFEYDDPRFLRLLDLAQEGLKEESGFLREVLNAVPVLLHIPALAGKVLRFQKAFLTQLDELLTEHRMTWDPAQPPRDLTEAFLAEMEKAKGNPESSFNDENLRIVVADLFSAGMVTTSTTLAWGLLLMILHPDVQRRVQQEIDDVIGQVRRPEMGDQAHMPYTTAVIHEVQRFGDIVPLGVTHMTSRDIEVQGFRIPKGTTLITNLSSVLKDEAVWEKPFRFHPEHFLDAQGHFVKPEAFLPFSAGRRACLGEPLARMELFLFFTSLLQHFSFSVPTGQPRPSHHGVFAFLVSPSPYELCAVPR
Assay: Percent inhibitory activity against human CYP2D6 at 1uM
Format: ADME
Listing: inhibition at 1 µM of selected compounds
Readout name: inhibition at 1 µM (%)

# Compound, Data value
records = [
    ("NC(=O)C1CCCc2c1[nH]c1ccc(Cl)cc21 (centres undefined)", -5),
    ("Cc1ccc2[nH]c3c(c2c1)CCCC3C(N)=O (centres undefined)", -3),
    ("NC(=O)C1CCCc2c1[nH]c1ccccc21 (centres undefined)", -4),
    ("NC(=O)C1CCCCc2c1[nH]c1ccc(Cl)cc21 (centres undefined)", 3),
]

###

Molecular target: CYP2C9 (Homo sapiens, UniProt P11712)
Sequence (P11712 whole entry): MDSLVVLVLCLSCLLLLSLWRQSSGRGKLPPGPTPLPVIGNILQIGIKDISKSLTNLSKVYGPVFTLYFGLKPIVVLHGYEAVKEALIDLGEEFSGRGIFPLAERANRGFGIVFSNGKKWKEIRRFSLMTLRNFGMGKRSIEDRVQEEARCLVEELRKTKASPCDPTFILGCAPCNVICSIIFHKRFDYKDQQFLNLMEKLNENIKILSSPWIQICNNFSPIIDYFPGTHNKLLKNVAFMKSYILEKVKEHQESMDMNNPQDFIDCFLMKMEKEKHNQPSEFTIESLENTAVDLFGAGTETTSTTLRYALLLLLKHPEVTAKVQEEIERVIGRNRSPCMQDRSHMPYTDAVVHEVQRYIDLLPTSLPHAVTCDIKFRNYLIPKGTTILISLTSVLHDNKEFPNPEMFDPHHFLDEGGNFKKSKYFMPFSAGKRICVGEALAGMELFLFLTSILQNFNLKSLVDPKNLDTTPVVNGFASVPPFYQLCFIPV
Assay: Percent inhibitory activity against human CYP2C9 at 1uM
Assay type: ADME
Readout name: inhibition at 1 µM (%)

# Compound, Data value
records = [
    ("NC(=O)C1CCCCc2c1[nH]c1ccc(Cl)cc21 (centres undefined)", 11),
    ("NC(=O)C1CCCc2c1[nH]c1ccccc21 (centres undefined)", -8),
    ("Cc1ccc2[nH]c3c(c2c1)CCCC3C(N)=O (centres undefined)", -9),
    ("NC(=O)C1CCCc2c1[nH]c1ccc(Cl)cc21 (centres undefined)", -5),
]

###

Molecular target: CYP2C19 (Homo sapiens, UniProt P33261)
Sequence (P33261 whole entry): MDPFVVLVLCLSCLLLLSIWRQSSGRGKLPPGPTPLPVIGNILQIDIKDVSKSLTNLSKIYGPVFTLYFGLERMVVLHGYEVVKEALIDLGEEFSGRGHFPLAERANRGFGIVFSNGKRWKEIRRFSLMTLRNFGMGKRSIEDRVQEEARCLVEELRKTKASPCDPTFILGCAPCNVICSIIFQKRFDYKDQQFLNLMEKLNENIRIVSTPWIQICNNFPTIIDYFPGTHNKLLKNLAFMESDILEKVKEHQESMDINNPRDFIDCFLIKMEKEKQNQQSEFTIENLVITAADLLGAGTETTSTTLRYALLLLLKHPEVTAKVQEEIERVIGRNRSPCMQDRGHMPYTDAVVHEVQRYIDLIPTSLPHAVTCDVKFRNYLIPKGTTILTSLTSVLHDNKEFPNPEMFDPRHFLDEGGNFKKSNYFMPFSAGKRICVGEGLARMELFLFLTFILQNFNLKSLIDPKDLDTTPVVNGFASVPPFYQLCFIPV
Assay: Percent inhibitory activity against human CYP2C19 at 1uM
Assay type: ADME
Readout name: inhibition at 1 µM (%)

# Molecule, Readout name, Data value
rows = [
    ("NC(=O)C1CCCc2c1[nH]c1ccc(Cl)cc21 (centres undefined)", "inhibition at 1 µM", 6),
    ("Cc1ccc2[nH]c3c(c2c1)CCCC3C(N)=O (centres undefined)", "inhibition at 1 µM", 9),
    ("NC(=O)C1CCCCc2c1[nH]c1ccc(Cl)cc21 (centres undefined)", "inhibition at 1 µM", 23),
    ("NC(=O)C1CCCc2c1[nH]c1ccccc21 (centres undefined)", "inhibition at 1 µM", 5),
]
